Here's a batch of compounds along with measured pIC50 for Bcl-2 (Homo sapiens (Human), UniProt P10415).
pIC50: −log10 of the molar value.
MEASUREMENT_TYPE: pIC50

>  <COMPOUND>
CCCCN(CCCC)C(=O)c1cn(C)c(-c2ccc(C(=O)NS(=O)(=O)c3ccc4ccccc4c3)cc2C(=O)N2CCc3ccccc3C2)n1 [Example 264]

>  <MEASUREMENT_TYPE>
pIC50

>  <REPORTED>
6.96

$$$$
>  <COMPOUND>
CCCCN(Cc1ccc(-c2ccc(CC(=O)O)cc2)cc1)C(=O)c1nn(-c2ccc(C(=O)NS(=O)(=O)c3ccc4c(c3)CCN4Cc3ccc(Cl)c(Cl)c3)cc2C(=O)N2CCc3ccccc3C2)c(C)c1Cl [Example 213]

>  <MEASUREMENT_TYPE>
pIC50

>  <REPORTED>
8.00

$$$$
>  <COMPOUND>
CCCCN(CCCC)c1ccc(Br)c(-c2ccc(C(=O)NS(=O)(=O)c3ccc4cccc(Cl)c4c3)cc2C(=O)N2CCc3ccccc3C2)n1 [Example 289]

>  <MEASUREMENT_TYPE>
pIC50

>  <REPORTED>
8.00

$$$$
>  <COMPOUND>
CCCCN(CCCC)C(=O)c1nn(-c2ccc(C(=O)NS(=O)(=O)c3ccc4ccc(OCCCN5CCOCC5)cc4c3)cc2C(=O)N2CCc3ccccc3C2)c(C)c1Cl [Example 34]

>  <MEASUREMENT_TYPE>
pIC50

>  <REPORTED>
6.54

$$$$
>  <COMPOUND>
CCCCc1c(-c2ccc(C(=O)NS(=O)(=O)c3ccc4ccccc4c3)cc2C(=O)N2CCc3ccccc3C2)c(C(=O)OCC)nn1-c1ccc(Oc2ccccc2)cc1 [Example 228]

>  <MEASUREMENT_TYPE>
pIC50

>  <REPORTED>
7.00

$$$$

FYI, the data here is from patent US9346795B2.
